- Tested on: HIV (LAV strain)
- protocol details: in vitro anti-HIV efficacy (antiviral test on HIV (LAV strain)-infected CEM cells)
- Assay type: cell-based
- recorded conditions: Human immunodeficiency virus 1, CCRF-CEM; in vitro anti-HIV efficacy, HIV (LAV strain) infected CEM cells; read-out: ID50 (the 50% inhibitory dose)
observed property: IC50 (nM)
Kindly provide the numeric value in nM only, without the unit symbol.

Prompt: Check the records and state IC50 for Cc1cn([C@H]2C=C[C@@H](CO)O2)c(=O)[nH]c1=O [d4T]
Completion: 330

---

- protocol details: cellular toxicity measured in CEM cells
- Assay type: cell-based
- recorded conditions: human, read-out: TCID50 (the 50% tissue culture inhibitory dose)
observed property: CC50 (µM)
Kindly provide the numeric value in µM only, without the unit symbol.

compound | CC50 (µM)
Cc1cn([C@H]2C[C@H](N=[N+]=[N-])[C@@H](CO)O2)c(=O)[nH]c1=O [AZT, 3'-azido-3'-deoxythymidine] | 54

Then this compound:
Prompt: Check the records and state CC50 for Cc1cn([C@H]2C=C[C@@H](CO)O2)c(=O)[nH]c1=O [d4T]
Completion: 39

Data credit: patent US5130421A
